biological target: Protective antigen (PA) 488-735 (Bacillus anthracis), P13423; experiment: ELISA; conditions: modification not given
readout_name: IC50

{"binder": "HPCNAMF [HPCNAMF (scrambled CMNHFPA)]", "readout_name": "IC50", "experimental_value": "153 µM"}
{"binder": "CMNHFPA", "readout_name": "IC50", "experimental_value": "49.8 µM"}
